test system: MOLT-4; experiment: Growth inhibition of human MOLT4 cells incubated for 48 hrs by sulforhodamine B assay; type: functional; settings: MOLT-4, 48 h, read-out: LC50 (the source's name)
Listed here: items and their measured CC50.
measured-quantity: CC50

> print(dat)
                                   compound  measured.quantity  reported.result
1  COc1cccc2c1C(=O)c1c(O)c3c(c(O)c1C2=O)C[C@@](O)(C(=O)CO)C[C@@H]3O[C@H]1C[C@H](N)[C@H](O)[C@H](C)O1               CC50           100 µM
2  COc1cc(C(=O)/C=C/c2cccc(Nc3ccnc4cc(Cl)ccc34)c2)cc(OC)c1OC               CC50         > 100 µM
3  COc1ccc(C2=NN(C=O)C(c3cccc(Nc4ccnc5cc(Cl)ccc45)c3)C2)cc1 (stereo not given)               CC50         > 100 µM
4  COc1ccc(C(=O)/C=C/c2cccc(Nc3ccnc4cc(Cl)ccc34)c2)cc1               CC50         > 100 µM
5  O=CN1N=C(c2ccc(Cl)cc2)CC1c1cccc(Nc2ccnc3cc(Cl)ccc23)c1 (stereo not given)               CC50         > 100 µM

====

Measured GI50 of individual entries
tested on: PC-3; assay: Growth inhibition of human PC3 cells incubated for 48 hrs by sulforhodamine B assay; type: functional; settings: PC-3, 48 h
measured-quantity: GI50 (nM)

> print(dat)
                                   compound  tested.on  quantity.unit  reported.result
1  COc1cc(C(=O)/C=C/c2cccc(Nc3ccnc4cc(Cl)ccc34)c2)cc(OC)c1OC       PC-3             nM             1480
2  COc1ccc(C(=O)/C=C/c2cccc(Nc3ccnc4cc(Cl)ccc34)c2)cc1       PC-3             nM             2510
3  COc1ccc(C2=NN(C=O)C(c3cccc(Nc4ccnc5cc(Cl)ccc45)c3)C2)cc1 (stereo not given)       PC-3             nM             2870
4  O=CN1N=C(c2ccc(Cl)cc2)CC1c1cccc(Nc2ccnc3cc(Cl)ccc23)c1 (stereo not given)       PC-3             nM             1690
5  COc1cccc2c1C(=O)c1c(O)c3c(c(O)c1C2=O)C[C@@](O)(C(=O)CO)C[C@@H]3O[C@H]1C[C@H](N)[C@H](O)[C@H](C)O1 [DOXORUBICIN]       PC-3             nM              320

====

system: SK-MEL-5; test: Growth inhibition of human SK-MEL-5 cells incubated for 48 hrs by sulforhodamine B assay; type: functional; settings: SK-MEL-5, 48 h
GI50 under 900 nM gets Criterion met, anything at or over 900 nM gets Criterion not met.

> print(dat)
                                   compound        class.label
1  O=CN1N=C(c2ccc(Cl)cc2)CC1c1cccc(Nc2ccnc3cc(Cl)ccc23)c1 (stereo not given)      Criterion met
2  COc1cc(C(=O)/C=C/c2cccc(Nc3ccnc4cc(Cl)ccc34)c2)cc(OC)c1OC  Criterion not met
3  COc1ccc(C(=O)/C=C/c2cccc(Nc3ccnc4cc(Cl)ccc34)c2)cc1  Criterion not met
4  COc1cccc2c1C(=O)c1c(O)c3c(c(O)c1C2=O)C[C@@](O)(C(=O)CO)C[C@@H]3O[C@H]1C[C@H](N)[C@H](O)[C@H](C)O1 [DOXORUBICIN]      Criterion met
